molecular target: free prostate specific antigen (PSA) (human, UniProt P07288 25-261); test: cell-based or functional assay
Non-standard residues stand in square brackets, D forms with d. Primed or numbered codes have the meaning given here. PEG(2)″ = polyethylene glycol containing substituent with 2 ethyleneoxy subunits; Hyp = O=C(O)[C@@H]1C[C@@H](O)CN1; Chg = N[C@H](C(=O)O)C1CCCCC1; ΔPro = O=C(O)[C@@H]1C=CCN1
A collection of binders and their measured Time to 50% Substrate Cleavage by PSA (Min); the cell gives the percent cleaved at 3 hours
Write down the numeric answer in % cleaved at 3 hours and omit the unit.

# binder, recorded_result
rows = [
    ("XASXQSX (N-terminal acetyl; 4-trans-L-Hyp (trans-4-hydroxy-L-proline) at position 1 (written X); Chg (cyclohexylglycine) at position 4 (written X); TIC (1,2,3,4-tetrahydro-3-isoquinoline carboxylic acid) at position 7 (written X); C-terminal free acid) [Ac-(4-trans-L-Hyp)ASChgQ-S(TIC)-acid]", 16),
    ("Ac-[ΔPro]AS[Chg]QSL-OH (SMILES CC(=O)N1CC=C[C@H]1C(=O)N[C@@H](C)C(=O)N[C@@H](CO)C(=O)N[C@H](C(=O)N[C@@H](CCC(N)=O)C(=O)N[C@@H](CO)C(=O)N[C@@H](CC(C)C)C(=O)O)C1CCCCC1) [Ac-(Dehydro-Pro)-ASChgQ-SL-acid]", 28),
]

For Ac-[Hyp][Chg]QSSSL-OH (SMILES CC(=O)N1C[C@H](O)C[C@H]1C(=O)N[C@H](C(=O)N[C@@H](CCC(N)=O)C(=O)N[C@@H](CO)C(=O)N[C@@H](CO)C(=O)N[C@@H](CO)C(=O)N[C@@H](CC(C)C)C(=O)O)C1CCCCC1) [Ac-(4-trans-L-Hyp)ChgQ-SSSL-acid] the binder record lists Time to 50% Substrate Cleavage by PSA (Min); the cell gives the percent cleaved at 3 hours as 0

For {PEG(2)″}-[Hyp]AS[Chg]QSL-OH [PEG(2)-(4-trans-L-Hyp)-ASChgQ-SL-acid] the binder record lists Time to 50% Substrate Cleavage by PSA (Min); the cell gives the percent cleaved at 3 hours as 44
